measured target: MAGL (Homo sapiens)
Construct: Proteomes (human prefrontal cortex or cell membrane fractions); from tissue
Sequence (Q99685 1-303): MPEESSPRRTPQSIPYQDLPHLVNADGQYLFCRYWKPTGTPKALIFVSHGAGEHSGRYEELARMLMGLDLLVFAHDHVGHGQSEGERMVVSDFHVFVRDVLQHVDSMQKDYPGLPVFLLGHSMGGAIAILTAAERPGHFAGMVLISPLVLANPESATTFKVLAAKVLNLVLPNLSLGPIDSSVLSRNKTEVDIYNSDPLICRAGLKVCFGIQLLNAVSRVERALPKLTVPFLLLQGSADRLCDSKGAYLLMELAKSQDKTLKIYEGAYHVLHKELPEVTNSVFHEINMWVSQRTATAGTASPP
test description: In vitro competitive activity-based protein profiling (human), MAGL
Format: biochemical
applied conditions: 1 μM inhibitor, human proteome, 30 min preincubation at 37° C; read-out: MAGL % inh. 1 μM (human)
Description: In Vitro Competitive Activity-Based Protein Profiling (Human). Proteomes (human prefrontal cortex or cell membrane fractions) (50 μL, 1.0-2.0 mg/mL total protein concentration) were preincubated with varying concentrations of inhibitors at 37° C. […] Following gel imaging, serine hydrolase activity was determined by measuring fluorescent intensity of gel bands corresponding to MAGL and ABHD6 using ImageJ 1.49 k software.
inhibition at 1 µM for assorted compounds

O=C(O)[C@@H]1CCCN(c2cc(C(F)(F)F)ccc2CN2CCN(C(=O)OC(C(F)(F)F)C(F)(F)F)CC2)C1 ... ≥ 75%

Task: Reported inhibition at 1 µM, compound `O=C(O)CN1CCC2(C1)CN(c1cc(C(F)(F)F)ccc1CN1CCN(C(=O)OC(C(F)(F)F)C(F)(F)F)CC1)C2` : ____
Output: ≥ 75%

Task: Reported inhibition at 1 µM, compound `O=C(O)CN1CC2(CCN(c3cc(C(F)(F)F)ccc3CN3CCN(C(=O)OC(C(F)(F)F)C(F)(F)F)CC3)C2)C1` : ____
Output: ≥ 75%

Task: Reported inhibition at 1 µM, compound `O=C(O)Cn1ccc(-c2cc(Cl)ccc2CN2CCN(C(=O)OC(C(F)(F)F)C(F)(F)F)CC2)n1` : ____
Output: ≥ 75%

Task: Reported inhibition at 1 µM, compound O=C(O)CN1CCCC1C1CCN(c2cc(Cl)ccc2CN2CCN(C(=O)OC(C(F)(F)F)C(F)(F)F)CC2)CC1 (stereo not shown) : ____
Output: ≥ 75%

Task: Reported inhibition at 1 µM, compound `Cc1ccc(CN2CCN(C(=O)OC(C(F)(F)F)C(F)(F)F)CC2)c(C2(C(=O)O)CCCC2)c1` : ____
Output: ≥ 75%

Task: Reported inhibition at 1 µM, compound `O=C(OC(C(F)(F)F)C(F)(F)F)N1CCN(Cc2ccc(C(F)F)cc2C2(C(=O)O)CCCC2)CC1` : ____
Output: ≥ 75%
